Tested on: CCRF-CEM
Assay: Inhibitory activity was tested against CEM cells
Assay type: functional, cell-based
Settings: Homo sapiens
pIC50: −log10 of the molar value.
property-label: pIC50

Q) Look at this compound and give its reported pIC50. "O=C1/C(=C/c2ccc([N+](=O)[O-])cc2)CCCc2ccccc21"
A) < 3.30

Q) Here is the next compound: "O=C1/C(=C/c2ccccc2)Cc2ccccc21"
A) 4.38

Q) Here is the next compound: "O=C1/C(=C/c2ccc(Br)cc2)CCc2ccccc21"
A) < 3.30

---

Could you please report measured IC50 for the items listed next?
System: P388
Assay: Inhibitory activity was tested against P388 cells
Type: functional, cell-based
Conditions: Mus musculus

Q) Look at this compound and give its reported IC50. "O=C1/C(=C/c2ccc([N+](=O)[O-])cc2)Cc2ccccc21"
A) > 50 µM

Q) Here is the next compound: "O=C1CCCCC/C1=C\c1ccc(F)cc1"
A) > 50 µM

Q) Here is the next compound: "O=C1CCCCC/C1=C\c1cccc(F)c1"
A) > 50 µM

Q) Here is the next compound: "O=C1/C(=C/c2cccc([N+](=O)[O-])c2)Cc2ccccc21"
A) > 50 µM

Q) Here is the next compound: "COc1ccc(/C=C2\CCCCCC2=O)cc1"
A) > 50 µM

Q) Here is the next compound: "O=C1/C(=C/c2ccc(F)cc2)Cc2ccccc21"
A) > 50 µM

Q) Here is the next compound: "COc1ccc(/C=C2\Cc3ccccc3C2=O)cc1"
A) > 50 µM

Q) Here is the next compound: "COc1cccc(/C=C2\Cc3ccccc3C2=O)c1"
A) > 50 µM
